- test-protocol: Toxicity assay in VERO cells (gentian violet staining)
- Assay type: cell-based, African green monkey
- study-conditions: African green monkey, VERO cells; BZL 50.0 µM + LTD-CPH-CFZ 0 µM; 24 h; read-out: viability of the VERO cells, percentage of untreated cells
reported-property: viability at 24 h, 50 µM
Your reply should be a number followed by the unit it is expressed in.

# input I'd like to know its viability at 24 h, 50 µM. The molecule in question is `O=C(Cn1ccnc1[N+](=O)[O-])NCc1ccccc1`
# output 95.7%

----------
- test-protocol: Toxicity assay in VERO cells (gentian violet staining)
- Type: cell-based, African green monkey
- study-conditions: African green monkey, VERO cells; BZL 100.0 µM + LTD-CPH-CFZ 0 µM; 24 h; read-out: viability of the VERO cells, percentage of untreated cells
reported-property: viability at 24 h, 100 µM
Your reply should be a number followed by the unit it is expressed in.

# input I'd like to know its viability at 24 h, 100 µM. The molecule in question is `O=C(Cn1ccnc1[N+](=O)[O-])NCc1ccccc1`
# output 92.9%
